These entries and their values trace back to PubChem BioAssay (NCI).

System: NCI/ADR-RES ovarian
Method notes: NCI-60 one-dose screen, 48 h
Run parameters: 10 µM unless noted
Compounds without any hit were thinned out: in the full panel of roughly 83,000, 20% have a hit. Calls of active or inactive are those of the source. The calls were made as follows: active = growth percent below 10; inactive = the rest.
Bench note: report the call from T for active, F for inactive

See these solved cases before continuing.
CCCc1cc(NC)nc(S(=O)(=O)CC)n1: F
C#CCn1cnc2c(Nc3cccc(NC(=O)C=C)c3)ncnc21: F

Q: Record lookup: outcome of this test for COc1cccc(/C=C/C(=O)c2cc3c(N)c(C(=O)Nc4ccccc4)sc3nc2C)c1 ?
Ans: T

Q: Record lookup: outcome of this test for O=C1c2cccc(NCCN=Cc3cc(O)ccc3O)c2C(=O)c2c(NCCN=Cc3cc(O)ccc3O)cccc21 ?
Ans: F

Q: Record lookup: outcome of this test for CN(C)CCNC(=O)c1cccc(-c2cnc3ccc(-c4ccc5c(c4)OCO5)nn23)c1 ?
Ans: F

Q: Record lookup: outcome of this test for N#Cc1cccc(F)c1 ?
Ans: F

Q: Record lookup: outcome of this test for Cc1cc2c(O)c(-c3cccc(Cl)c3)c3sc(=O)oc3c2cc1C ?
Ans: F

----------
I'd appreciate it if you could supply growth values for the items below.
System: HCC-2998 colon
Method notes: NCI-60 one-dose screen, 48 h (100 = growth as untreated, 0 = no growth, -100 = all killed)
Run parameters: 10 µM unless noted
About 83,000 compounds went through this panel and 20% of them were active in at least one assay; those are over-represented in the sample as a whole. The source made the active and inactive calls. Rule for the calls: active = growth percent below 10; inactive = the rest.

Some entries whose results are on file:
O=C(Nc1ccc(-c2nc(N3CCOCC3)c3cccn3n2)cc1)Nc1cccnc1: 12.9% (inactive)
O=C1C(Cl)=C(Oc2ccccc2)C(=O)c2ccccc21: 66.5% (inactive)
O=C(Cn1cc(CN2CCCCCC2)nn1)Nc1ccc2c(ccn2Cc2ccccc2)c1: 97.6% (inactive)
O=C(/C=C/c1cn(-c2ccccc2)nc1-c1ccc([N+](=O)[O-])cc1)c1ccc(Cl)cc1: -22% (active)
CCCCCCCCn1ccc2cc(NC(=O)Cn3cc(CN4CCCCC4)nn3)ccc21: -70.4% (active)

I would be grateful if you could provide growth for each of the following entries.
1. CCc1nc2c(=O)[nH]cnc2o1
2. Cc1c(-n2nnc(-c3nc4ccccc4s3)c2N)c(=O)n(-c2ccccc2)n1C

Ans:
["109% (inactive)", "95.4% (inactive)"]

----------
Test system: MALME-3M melanoma
Method notes: NCI-60 one-dose screen, 48 h
Run parameters: 10 µM unless noted
Compounds without any hit were thinned out: in the full panel of roughly 83,000, 20% have a hit. Active and inactive are the calls of the source. How the source made its calls: active means growth percent below 10; inactive means the rest.
Bench note: report the call from active, inactive

COc1ccc(-c2nc3c(c(-c4ccccc4)nn3-c3ccccc3)c(-c3ccc(N4CCN(C)CC4)cc3)c2C#N)cc1: inactive
C=CCn1c(SCC(=O)NCc2cc(C)c(O)c(C)c2)nc2ccc(Cl)cc2c1=O: inactive
O=C(Cn1c(=O)sc2ccccc21)NNS(=O)(=O)c1ccccc1[N+](=O)[O-]: inactive
COC(=O)c1c2c(c(C)[n+]([O-])c1C)C(=O)C(NCc1ccc(Cl)cc1)=CC2=O: active
O=C1c2cccc(NCCN=Cc3cc(O)ccc3O)c2C(=O)c2c(NCCN=Cc3cc(O)ccc3O)cccc21: active

Q: Record lookup: outcome of this test for N#Cc1c(-c2ccc(Cl)cc2)nc(NN=Cc2cccc(O)c2)nc1N1CCOCC1 ?
Ans: inactive

Q: Record lookup: outcome of this test for Cc1nnc(NC(=O)c2nc(S(=O)(=O)Cc3ccc(F)cc3)ncc2Cl)s1 ?
Ans: active

Q: Record lookup: outcome of this test for OB(O)c1cccc(-c2nc3ccc4[nH]ncc4c3c3c2CCCC3)c1 ?
Ans: inactive

Q: Record lookup: outcome of this test for Cn1cc(-c2nc(-c3c[nH]c4ccncc34)cs2)c2ccccc21 ?
Ans: inactive

Q: Record lookup: outcome of this test for Cc1ccc(Cc2cnc(NC(=O)c3cc(Br)cs3)s2)cc1 ?
Ans: inactive
